Test system: rice leafroller (Cnaphalocrocis medinalis)
protocolText: Insecticidal effect on rice leafroller (Test Example 3)
Type: in vivo
protocolConditions: 500 ppm, rice lamina dip, third-instar larvae, four days after inoculation, 25° C., humidity 70%
endpoint: Insecticidal effect on rice leafroller (Test Example 3), judged grade

// solved cases for Insecticidal effect on rice leafroller (Test Example 3), judged grade follow
| compound | endpointValue |
| --- | --- |
| Cc1cc(OC(F)(F)Br)ccc1NC(=O)c1cccc([N+](=O)[O-])c1C(=O)NC(C)C | A (100) |
| Cc1cc(OC(F)(F)C(F)C(F)(F)F)ccc1NC(=O)c1c(I)cccc1C(=O)NC(C)C (centres unmarked) | A (100) |
| CC(C)NC(=O)c1c(C(=O)Nc2ccc(I)cc2)cccc1[N+](=O)[O-] | A (100) |
| Cc1ccc(NC(=O)c2cccc([N+](=O)[O-])c2C(=O)NC(C)C)c(Cl)c1 | A (100) |
| CC(C)NC(=O)c1cccc(F)c1C(=O)Nc1ccc(C(F)(F)C(F)(F)F)cc1 | A (100) |
| CC(C)NC(=O)c1cccc(I)c1C(=O)Nc1ccc(OC(F)F)c(C(F)(F)F)c1 | A (100) |

Consider the additional compound presented here.
Task item: Dear colleague, I am looking for the recorded Insecticidal effect on rice leafroller (Test Example 3), judged grade of the following compound: `Cc1ccc(Cl)cc1NC(=O)c1c(OC(F)F)cccc1C(=O)NC(C)C`
Reply: A (100)

###

Tested on: rice leafroller (Cnaphalocrocis medinalis)
protocolText: Insecticidal effect on rice leafroller (Test Example 3)
Assay type: in vivo
protocolConditions: 500 ppm; rice lamina immersed; third-instar larvae of rice leafroller; four days after inoculation; 25° C., humidity 70%
Excerpt: Insecticidal effect on rice leafroller (Cnaphalocrocis medinalis) After air-drying, the lamina was placed in a plastic Petri dish with a diameter of 9 cm whose bottom had been covered with a wetted filter paper. […] Four days after the inoculation, the dead and alive were counted and the insecticidal effect was judged according to the criterion shown in Test Example 1. […]
endpoint: Insecticidal effect, Test Example 3

Worked examples follow.
| structure | measuredTarget | Insecticidal effect, Test Example 3 |
| --- | --- | --- |
| CC(C)NC(=O)c1cccc(Br)c1C(=O)Nc1ccc(OC(F)(F)F)cc1Br | rice leafroller (Cnaphalocrocis medinalis) | A (100) |
| Cc1cc(C(F)(F)C(F)(Cl)Cl)ccc1NC(=O)c1ccccc1C(=O)NC(C)C | rice leafroller (Cnaphalocrocis medinalis) | A (100) |
| Cc1cc(OC(F)(F)C(F)F)ccc1NC(=O)c1cccc(Cl)c1C(=O)NC(C)C | rice leafroller (Cnaphalocrocis medinalis) | A (100) |
| Cc1cc(C(F)(F)C(F)(F)C(F)(F)C(F)(F)F)ccc1NC(=O)c1cccc(Cl)c1C(=O)NC(C)C | rice leafroller (Cnaphalocrocis medinalis) | A (100) |
| Cc1ccc(Cl)cc1NC(=O)c1cccc(Cl)c1C(=O)NC(C)C | rice leafroller (Cnaphalocrocis medinalis) | A (100) |

Task item: Would you kindly share the measured Insecticidal effect, Test Example 3 for `Cc1cc(F)ccc1NC(=O)c1c(Br)cccc1C(=O)NC(C)C` ?
Reply: A (100)

Task item: Could you tell me which Insecticidal effect, Test Example 3 is on file for `CC(C)NC(=O)c1c(I)cccc1C(=O)Nc1ccc(F)c(F)c1` ?
Reply: A (100)

###

Tested on: diamondback moth (Plutella xylostella)
protocolText: Insecticidal effect on diamondback moth (Test Example 1)
Assay type: in vivo
protocolConditions: diamondback moth; mortality judged by criterion of Test Example 1

| molecule | measuredTarget | Insecticidal effect, Test Example 1 |
| --- | --- | --- |
| CC(C)NC(=O)c1ccccc1C(=O)Nc1ccc2c(c1)OC(F)C(F)(F)O2 (stereo not shown) | diamondback moth (Plutella xylostella) | A (100) |
| Cc1cc(CCC(C)(C)C)ccc1NC(=O)c1cccc(Cl)c1C(=O)NC(C)C | diamondback moth (Plutella xylostella) | A (100) |
| CCN(CC)C(=O)c1c(I)cccc1C(=O)Nc1ccc2nc(C(F)(F)C(F)(F)F)oc2c1 | diamondback moth (Plutella xylostella) | A (100) |
| Cc1cc(C#N)ccc1NC(=O)c1cccc(I)c1C(=O)NC(C)C | diamondback moth (Plutella xylostella) | A (100) |
